- Target System: Induced myeloid leukemia cell differentiation protein Mcl-1 (Homo sapiens) (UniProt Q07820)
- Sequence (Q07820 whole entry, looked up): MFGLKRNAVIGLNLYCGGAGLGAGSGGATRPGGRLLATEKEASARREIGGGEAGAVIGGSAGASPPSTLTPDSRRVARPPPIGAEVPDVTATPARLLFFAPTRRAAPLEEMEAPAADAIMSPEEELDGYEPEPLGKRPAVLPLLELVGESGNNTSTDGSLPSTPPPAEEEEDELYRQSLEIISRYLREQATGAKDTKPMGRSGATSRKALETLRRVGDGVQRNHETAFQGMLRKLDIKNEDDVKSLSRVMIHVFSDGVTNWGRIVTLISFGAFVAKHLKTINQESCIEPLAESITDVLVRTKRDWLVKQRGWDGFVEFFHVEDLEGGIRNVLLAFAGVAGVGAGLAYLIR
- Test Details: disruptors of Mcl-1 and Bid BH3 peptide – biochemical, TR-FRET, 1536-well, primary screen (AID 1021);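 also: His-tagged Mcl-1 with europium anti-His antibody binding Bid BH3 peptide; 0% = Mcl-1 plus peptide wells and 100% = peptide-only wells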
- Measurement Context: TR-FRET Mcl-1/Bid-Dy647 peptide binding, at 21.7 µM, stronger effect = higher value
The whole screen tested about 220,000 compounds, of which about 2,100 (0.95%) were called active. The entries come from a sample that favours actives as a whole.
Reported inhibition values follow for various compounds
Response body: numeric value in %, unit text excluded.

Study these solved cases before continuing.
Compound	Unit Abbreviation	Value
CC/S(CC1CC1(Cl)Cl)=N\S(=O)(=O)c1ccc(C)cc1 (stereo not given)	%	-4.99
NC1=NC(=O)S/C1=C\c1ccc(O)cc1	%	-45.3
CC1=CC=CN2C1=NC(=O)CC2(C)C(=O)N(CC(=O)NC1CCCC1)c1ccccc1C (stereo not given)	%	50.7
CCOc1ccc(N=C2SC(C(=O)O)CC(=O)N2C)cc1 (stereo not given)	%	3.39
CCCC/S(C)=N/S(=O)(=O)c1ccc(C)cc1 (stereo not given)	%	4.25
CC(C)c1ccc2c(c1)c(SC(C)(C)C)c(CC(C)(C)C(=O)O)n2Cc1ccc(Cl)cc1	%	83.2
CCC(=O)Nc1cccc(C2=NOC3(C2)C[C@@H](C(N)=O)N(C(=O)c2cc([N+](=O)[O-])cc([N+](=O)[O-])c2C)C3)c1 (stereo not given in full)	%	-35.2
CCOc1ccc(N=C2NC(=O)S/C2=C\c2ccc(O)cc2)cc1	%	85.2
Cc1ccccc1CCN(CC(=O)NC1CCCCC1)C(=O)c1csnn1	%	-16.2

**Query** Return value of inhibition for input Cc1ccc(S(=O)(=O)/N=S(\C)C(C)C)cc1 (stereo not given) , no commentary.
**Result** 89.4

---

- Target System: Induced myeloid leukemia cell differentiation protein Mcl-1 (Homo sapiens)
- Test Details: disruptors of Mcl-1 and Bid BH3 peptide – biochemical, TR-FRET, 1536-well, primary screen (AID 1021);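 also: His-tagged Mcl-1 with europium anti-His antibody binding Bid BH3 peptide; 0% = Mcl-1 plus peptide wells and 100% = peptide-only wells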
- Measurement Context: TR-FRET Mcl-1/Bid-Dy647 peptide binding, at 21.7 µM, stronger effect = higher value
About 2,100 (0.95%) of roughly 220,000 compounds were called active. The list comes from a sample in which actives are over-represented; it also holds close analogues and randomly drawn compounds.
Given measured inhibition, output condition met if it is greater than or equal to -10% and condition not met if not.

Sample answers from the record:
Molecule	Cat
O=[N+]([O-])c1cccc(Nc2c3ccccc3nc3ccccc23)c1	condition not met
CSc1nc(C)cc(SC(C(C)=O)C(=O)Nc2ccccc2)n1 (stereo unspecified)	condition not met
O=[N+]([O-])c1cccc(-c2nnc3c4ccccc4c4ccccc4n23)c1	condition met
COc1ccc(OC)c(C2N(c3ccccn3)C(=O)C3CCCN32)c1 (stereo unspecified)	condition met
CN(C)c1ccc(/C=C/C(=O)c2ccc(O)cc2)cc1[N+](=O)[O-]	condition met

**Query** Can COc1ccc(C(=O)C2CCCN(Cc3ccc4nonc4c3)C2)c(C)c1 (stereo unspecified) be said to have inhibition at or above -10%?
**Result** condition not met

**Query** Can O=[N+]([O-])C(=c1ccc2c(c1)N1C3=C(CCCC3)CC3CCCCC31N=2)[N+](=O)[O-] (stereo unspecified) be said to have inhibition at or above -10%?
**Result** condition met

**Query** Can CCc1ccccc1NC(=O)CSc1nnc(-c2ccncc2)o1 be said to have inhibition at or above -10%?
**Result** condition not met

**Query** Can COc1ccccc1NC(=O)/C=C/C(=O)O be said to have inhibition at or above -10%?
**Result** condition not met

**Query** Can CC(Sc1nc(-c2ccccc2)cc(C(F)(F)F)n1)C(=O)Nc1ccc2c(c1)OCO2 (stereo unspecified) be said to have inhibition at or above -10%?
**Result** condition not met
